Below: a set of entries, each annotated with reported TGI.
System: MDA-MB-435
Experiment notes: NCI tumour cell line growth inhibition, 48 h

- Compound: "CCC(=O)O[C@H]1CC[C@H]2[C@@H]3CCC4=C/C(=N/OC(=O)c5cccc6c(=O)c7ccccc7[nH]c56)CC[C@]4(C)[C@H]3CC[C@]12C"
  TGI: "99.6 µM"
- Compound: "Cc1ccc(-c2n[nH]c(=O)n2/N=C\\c2ccc([N+](=O)[O-])cc2)cc1"
  TGI: "> 94.2 µM"
- Compound: "CN(CCO)c1ccc(N2Cc3ccccc3OC3=C2C(=O)c2c(O)ccc(O)c2C3=O)cn1"
  TGI: "0.478 µM"
- Compound: "O=C1NC(=O)/C(=C\\c2ccccc2)C2=C1CCCC2"
  TGI: "3.49 µM"
- Compound: "O=C(O)CC(NC(=O)CP(=O)(O)O)C(=O)O (configuration not stated)"
  TGI: "> 10000 µM"
- Compound: "CC1=CCC(C)=Nc2nc3ccccc3n21"
  TGI: "> 100 µM"
- Compound: "O=C(c1ccccc1)c1c(-c2ccccc2)n(-c2ccccc2)[nH]c(=O)c1=O"
  TGI: "> 100 µM"
- Compound: "COc1cc(O)c(C(=O)/C=C/c2ccc(O)cc2)cc1Oc1ccc(/C=C/C(=O)c2ccc(O)cc2O)cc1"
  TGI: "25.7 µM"

Task: Form entry - test system: MDA-MB-435; read-out: TGI; compound: COc1cc(N(CCC#N)CCC#N)ccc1/C(N=Nc1ccccc1C)=N\NC(=O)c1ccc(C)cc1
Result: > 100 µM

Task: Same again, this time with CC(C)(S)C(N)C(=O)O (configuration not stated)
Result: > 5000 µM

Task: Here is the next compound: CCOC(=O)/C=C(/C)Sc1cc(O)c2ccccc2c1O
Result: 3.28 µM

Task: Likewise for O=C(c1cccs1)N(C(=O)N1CCN(c2ccccc2)CC1)S(=O)(=O)c1ccccc1 ?
Result: 70.6 µM

Task: O=C(Oc1ccccc1)N1c2ccccc2[C@@]23O[C@]24CCC[C@H]3C#C/C=C\C#C[C@H]14 , same question.
Result: 36.7 µM
